TEST_SUMMARY: amyloid nucleation score (Sup35N fusion, yeast selection) (log enrichment); library NNK2; higher = more nucleation; inactive = no reads after selection;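 further: zero at mode of non-aggregating sequences after 7 days selection at 30°C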
Label rule not met if amyloid nucleation score falls below 0.7; label rule met in every other case.

SUBSTANCE	LABEL_VALUE
CVSSRDRG	rule not met
FWFIRTRAGDWCPSSSPRMF	rule not met
SIFRWKREKAVGLYPLHQVA	rule not met
SNLVKHRQV	rule met
RICVKLKVDSGVKMHQTTAG	rule met
SSEIKRSWGYFLSLLWFYYR	rule not met
SIRSFSFISESNQLLEHVRK	rule not met
VVVFMHV	rule met
DGYLRYYSNLDG	rule not met
SPNRQLVKFYFQTTYMVSRL	rule met
NYDGVVVEDNVVGTRTSVAG	rule not met
CKFLRVIA	rule not met
VGRQSCFVYMWCWTYHMWGL	rule met
CLWVRGSCC	rule not met
SAMQFRSFF	rule met
SNIYLVPRFIWP	rule not met
